Recorded MUSCDO AC = Musca domestica (knockdown), score values for a group of compounds are listed next.
System: Musca domestica
protocolConditions: 500 ppm by weight; knockdown assessed 15 minutes after treatment

Study these solved cases before continuing.
compound=Cc1nsc(NC(=O)Cc2ccc3oc(C(F)(F)C(F)(F)C(F)(F)F)nc3c2)c1Cl value="0 (0 indicates less than 40% mortality)"
compound=Cc1nsc(NC(=O)Cc2ccc3oc(CC(C)(C)C)nc3c2)c1Cl value="9 (9 indicates 80-100% mortality)"
compound=Cc1nsc(NC(=O)Cc2ccc3oc(S)nc3c2)c1Cl value="0 (0 indicates less than 40% mortality)"
compound="CCC(C)c1nc2cc(CC(=O)Nc3snc(C)c3Cl)ccc2o1 (centres unmarked)" value="5 (5 indicates 40-79% mortality)"

Now, please, on to the next compound.
Query block: Value lookup for MUSCDO AC = Musca domestica (knockdown), score; key = CCCc1nc2cc(CC(=O)N(CCC)c3snc(C)c3Cl)ccc2o1
Result block: 0 (0 indicates less than 40% mortality)

* * *

The compounds listed here are annotated with their VENTIN 1 d Prot/Foir PRCO.
Test system: Venturia inaequalis
testSummary: Fungicidal test, Venturia inaequalis (VENTIN) on apples, PRCO
Assay type: in vivo
protocolConditions: METHOD 2 (unbanded)
Reply with the value as a number alone.

A selection of reference data follows.
compound="Cc1nsc(NC(=O)Cc2ccc3oc(-c4cccs4)nc3c2)c1Cl [330(A3)]" testreadout="VENTIN 1 d Prot/Foir PRCO" value=6
compound="CSCCc1nc2cc(CC(=O)Nc3snc(C)c3Cl)ccc2o1 [172(A3)]" testreadout="VENTIN 1 d Prot/Foir PRCO" value=69
compound="Cc1nsc(NC(=O)Cc2ccc3oc(C(C)(C)CCl)nc3c2)c1Cl [98(A3)]" testreadout="VENTIN 1 d Prot/Foir PRCO" value=96

Query block: Find the measured VENTIN 1 d Prot/Foir PRCO: item CCC(CC)c1nc2cc(CC(=O)Nc3snc(C)c3Cl)ccc2o1 [13(A3)] , target or system Venturia inaequalis.
Result block: 53

Query block: Lab request: please report VENTIN 1 d Prot/Foir PRCO under test system Venturia inaequalis for Cc1nsc(NC(=O)Cc2ccc3oc(-c4ccncc4)nc3c2)c1Cl [339((A3)]
Result block: 8

* * *

Entries and their VENTIN 1 d Prot/Foir PRCO values follow.
Tested on: Venturia inaequalis
testSummary: Fungicidal test, Venturia inaequalis (VENTIN) on apples, PRCO
Type: in vivo
protocolConditions: METHOD 2 (unbanded)
A bare number is all that is needed in reply.

Below are worked cases with known answers.
compound="Cc1nsc(NC(=O)Cc2ccc3oc(C(C)C)nc3c2)c1Cl [8(A3)]" value=26
compound="Cc1nsc(NC(=O)Cc2ccc3oc(-c4sccc4Cl)nc3c2)c1Cl [331(A3)]" value=5
compound="Cc1nsc(NC(=O)Cc2ccc3oc(-c4ccccc4Cl)nc3c2)c1Cl [253(A3)]" value=34
compound="Cc1nsc(NC(=O)Cc2ccc3oc(CC(C)(C)C)nc3c2)c1Cl [Compound 15(A3)]" value=100
compound="Cc1nsc(N(CC(F)(F)F)C(=O)Cc2ccc3oc(CC(C)(C)C)nc3c2)c1Cl [15(H3)]" value=0

# context switch: different compound, same VENTIN 1 d Prot/Foir PRCO
Query block: Could you share what VENTIN 1 d Prot/Foir PRCO was measured for Cc1nsc(NC(=O)Cc2ccc3oc(C4(C)CCCCC4)nc3c2)c1Cl [36(A3)] , tested on Venturia inaequalis?
Result block: 44

* * *

System: Septoria nodorum
testSummary: Fungicidal test, Septoria nodorum (LEPTNO) on wheat, PRCO
Assay type: in vivo
protocolConditions: METHOD 2 (unbanded)
testReadout: LEPTNO 1 d Prot/Foir PRCO
Field format: numeric only.

compound="Cc1nc2cc(CC(=O)Nc3snc(C)c3Br)ccc2o1 [2(A4)]" value=−12

Query block: Reported LEPTNO 1 d Prot/Foir PRCO for Cc1nsc(N(CC(F)(F)F)C(=O)Cc2ccc3oc(CC(C)(C)C)nc3c2)c1Cl [15(H3)] : what is it?
Result block: 2

Query block: Query: LEPTNO 1 d Prot/Foir PRCO; subject: Cc1nsc(NC(=O)Cc2ccc3oc(CC(C)(C)C)nc3c2)c1C#N [15(A5)]
Result block: −2

Query block: What value of measured LEPTNO 1 d Prot/Foir PRCO is listed for Cc1nc2cc(CC(=O)Nc3snc(C)c3Cl)ccc2o1 [2(A3)] ?
Result block: 21

Query block: Could you tell me which LEPTNO 1 d Prot/Foir PRCO is on file for Cc1nsc(N(C)C(=O)Cc2ccc3oc(CC(C)(C)C)nc3c2)c1Cl [15(B3)] ?
Result block: −2

Query block: # LEPTNO 1 d Prot/Foir PRCO lookup, item Cc1nsc(NC(=O)Cc2ccc3oc(CC(C)(C)C)nc3c2)c1Cl [Compound 15(A3)]
Result block: 71

Query block: Which LEPTNO 1 d Prot/Foir PRCO is reported for this compound? Cc1nc2cc(CC(=O)Nc3snc(C)c3C#N)ccc2o1 [2(A5)]
Result block: −2

Query block: Which LEPTNO 1 d Prot/Foir PRCO value is on record for CCC(CC)c1nc2cc(CC(=O)Nc3snc(C)c3Cl)ccc2o1 [13(A3)] ?
Result block: 58

Query block: Return reported LEPTNO 1 d Prot/Foir PRCO; argument: Cc1nsc(NC(=O)Cc2ccc3oc(-c4c(F)c(F)c(F)c(F)c4F)nc3c2)c1Cl [287(A3)]
Result block: −2

Query block: What value of measured LEPTNO 1 d Prot/Foir PRCO is listed for CCN(C(=O)Cc1ccc2oc(CC(C)(C)C)nc2c1)c1snc(C)c1Cl [15(C3)] ?
Result block: 93

Query block: Which LEPTNO 1 d Prot/Foir PRCO reading was recorded for the compound Cc1nsc(NC(=O)Cc2ccc3oc(C(C)(C)CCl)nc3c2)c1Cl [98(A3)] ?
Result block: 30

Query block: Recorded LEPTNO 1 d Prot/Foir PRCO for Cc1nsc(N(C(=O)Cc2ccc3oc(CC(C)(C)C)nc3c2)C(C)C)c1Cl [15(N3)] , please?
Result block: −2

Query block: Any idea what its LEPTNO 1 d Prot/Foir PRCO is? The compound is Cc1nsc(NC(=O)Cc2ccc3oc(C4CCCC4)nc3c2)c1Cl [28(A3)]
Result block: 20

* * *

Below, each of the compounds is paired with its reported MELGIN = Meloidogyne incognita, grading of mortality (score) value.
System: Meloidogyne incognita
testSummary: Nematode test, J2 infective juveniles of Meloidogyne incognita, mortality
protocolConditions: 12.5 ppm; J2 infective juveniles suspended in solution; mortality after three days

See these solved cases before continuing.
compound=CCc1nsc(NC(=O)Cc2ccc3oc(CC(C)(C)C)nc3c2)c1Cl targetorsystem="Meloidogyne incognita" value="0 (0 indicates less than 40% mortality)"
compound=Cc1nsc(NC(=O)Cc2ccc3oc(C4CC4)nc3c2)c1Cl targetorsystem="Meloidogyne incognita" value="0 (0 indicates less than 40% mortality)"
compound=Cc1nsc(NC(=O)Cc2ccc3oc(-c4ccno4)nc3c2)c1Cl targetorsystem="Meloidogyne incognita" value="0 (0 indicates less than 40% mortality)"
compound=CCCc1nc2cc(CC(=O)Nc3snc(C)c3Cl)ccc2s1 targetorsystem="Meloidogyne incognita" value="0 (0 indicates less than 40% mortality)"
compound=Cc1nsc(NC(=O)Cc2ccc3oc(Cl)nc3c2)c1Cl targetorsystem="Meloidogyne incognita" value="0 (0 indicates less than 40% mortality)"

Query block: Report MELGIN = Meloidogyne incognita, grading of mortality (score) for CCCC(C)c1nc2cc(CC(=O)Nc3snc(C)c3Cl)ccc2o1 (stereo not drawn) please.
Result block: 9 (9 indicates 80-100% mortality)

Query block: Please give the measured MELGIN = Meloidogyne incognita, grading of mortality (score) for this compound: CCCN(C(=O)Cc1ccc2oc(CC(C)(C)C)nc2c1)c1snc(C)c1Cl
Result block: 0 (0 indicates less than 40% mortality)

Query block: Tell me the measured MELGIN = Meloidogyne incognita, grading of mortality (score) of Cc1nsc(NC(=O)Cc2ccc3oc(C4CCCC4)nc3c2)c1Cl , please.
Result block: 0 (0 indicates less than 40% mortality)

* * *

Test system: Musca domestica
protocolConditions: 500 ppm by weight; knockdown assessed 15 minutes after treatment
MUSCDO AC = Musca domestica (knockdown), score values for the molecules below.

Previously resolved entries follow.
molecule=Cc1nsc(NC(=O)Cc2ccc3oc(CCc4ccccc4)nc3c2)c1Cl value="0 (0 indicates less than 40% mortality)"
molecule=CCCc1nc2cc(CC(=O)N(COCC)c3snc(C)c3Cl)ccc2o1 value="9 (9 indicates 80-100% mortality)"
molecule=Cc1nc2ccc(CC(=O)Nc3snc(C)c3Cl)cc2[nH]1 value="0 (0 indicates less than 40% mortality)"
molecule=Cc1nc2cc(CC(=O)Nc3snc(C)c3Cl)ccc2s1 value="0 (0 indicates less than 40% mortality)"
molecule=CCN(C)c1nc2cc(CC(=O)Nc3snc(C)c3Cl)ccc2o1 value="0 (0 indicates less than 40% mortality)"

Query block: Look up MUSCDO AC = Musca domestica (knockdown), score: Cc1nc2cc(CC(=O)Nc3snc(C)c3Cl)ccc2o1
Result block: 0 (0 indicates less than 40% mortality)

Query block: Item under review: CCCN(C(=O)Cc1ccc2oc(C)nc2c1)c1snc(C)c1Cl . Reported MUSCDO AC = Musca domestica (knockdown), score?
Result block: 0 (0 indicates less than 40% mortality)

Query block: Given the entry Cc1nsc(NC(=O)Cc2ccc3oc(-c4ccc(Cl)cc4Cl)nc3c2)c1Cl , report its measured MUSCDO AC = Musca domestica (knockdown), score.
Result block: 0 (0 indicates less than 40% mortality)

Query block: Consider the molecule shown here: CCOc1nc2cc(CC(=O)Nc3snc(C)c3Cl)ccc2o1 What is its recorded MUSCDO AC = Musca domestica (knockdown), score?
Result block: 9 (9 indicates 80-100% mortality)

Query block: Find the recorded MUSCDO AC = Musca domestica (knockdown), score belonging to CCCc1nc2cc(CC(=O)Nc3snc(C)c3Cl)ccc2s1 and report it.
Result block: 9 (9 indicates 80-100% mortality)

Query block: Which value of MUSCDO AC = Musca domestica (knockdown), score has been reported for Cc1nsc(NC(=O)Cc2ccc3oc(-c4ccncc4)nc3c2)c1Cl in the records?
Result block: 0 (0 indicates less than 40% mortality)

Query block: Could you tell me which MUSCDO AC = Musca domestica (knockdown), score is on file for COc1nc2cc(CC(=O)Nc3snc(C)c3Cl)ccc2o1 ?
Result block: 9 (9 indicates 80-100% mortality)

Query block: Name the recorded MUSCDO AC = Musca domestica (knockdown), score for Cc1nsc(NC(=O)Cc2ccc3oc(CC4CC4)nc3c2)c1Cl .
Result block: 0 (0 indicates less than 40% mortality)

Query block: Can you look up the measured MUSCDO AC = Musca domestica (knockdown), score of CCC(CC)c1nc2cc(CC(=O)Nc3snc(C)c3Cl)ccc2o1 for me?
Result block: 9 (9 indicates 80-100% mortality)

Query block: Need MUSCDO AC = Musca domestica (knockdown), score, item CCOCN(C(=O)Cc1ccc2oc(C)nc2c1)c1snc(C)c1Cl
Result block: 9 (9 indicates 80-100% mortality)
